Tested on: KRAS-mutant PDC multicell tumor spheroid viability
Test description: Anticancer human tumor 521955-158-R2-J5-PDC patient-derived pancreatic carcinoma cell line growth inhibition [KRAS2]
Condition info: second compound 3.16 µM; first compound 0.0001 µM; hits give low values
Measured viability, T/C, listed per entry for reference.

Compound	viability, T/C
CC(=O)Nc1cccc(-n2c(=O)n(C3CC3)c(=O)c3c(Nc4ccc(I)cc4F)n(C)c(=O)c(C)c32)c1 + COc1cc2nc(C)nc(NC(C)c3cc(N)cc(C(F)(F)F)c3)c2cc1OC1CCOC1	63.6%
CC(=O)Nc1cccc(-n2c(=O)n(C3CC3)c(=O)c3c(Nc4ccc(I)cc4F)n(C)c(=O)c(C)c32)c1 + CC1OCC2(CCN(c3cnc(Sc4ccnc(N)c4Cl)c(N)n3)CC2)C1N	40.9%
CC(=O)Nc1cccc(-n2c(=O)n(C3CC3)c(=O)c3c(Nc4ccc(I)cc4F)n(C)c(=O)c(C)c32)c1 + C=CC(=O)N1CCN(c2nc(=O)n(-c3c(C)ccnc3C(C)C)c3nc(-c4c(O)cccc4F)c(F)cc23)C(C)C1	63.5%
CC(=O)Nc1cccc(-n2c(=O)n(C3CC3)c(=O)c3c(Nc4ccc(I)cc4F)n(C)c(=O)c(C)c32)c1 + C=CC(=O)N1CCN(c2nc(OCC3CCCN3C)nc3c2CCN(c2cccc4cccc(C)c24)C3)CC1CC#N	3.74%
CC(=O)Nc1cccc(-n2c(=O)n(C3CC3)c(=O)c3c(Nc4ccc(I)cc4F)n(C)c(=O)c(C)c32)c1 + CNCc1ccccc1-c1csc(C(C)Nc2nc(C)nc3cc(OC)c(OC)cc23)c1	1.11%

====

Tested on: KRAS-mutant PDC multicell tumor spheroid viability
Test description: Anticancer human tumor 521955-158-R2-J5-PDC cell line growth inhibition [KRAS2];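 also: viability read after seven days of drug exposure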
Condition info: second compound 10 µM; first compound 0.0316 µM; hits give low values
molecules and their reported viability, T/C

Molecule	Unit abbreviation	viability, T/C
CC(=O)OC12COC1CC(O)C1(C)C(=O)C(O)C3=C(C)C(OC(=O)C(O)C(NC(=O)OC(C)(C)C)c4ccccc4)CC(O)(C(OC(=O)c4ccccc4)C21)C3(C)C (stereo unspecified) + CC1OCC2(CCN(c3cnc(Sc4ccnc(N)c4Cl)c(N)n3)CC2)C1N	%	15.9
CC(C)NCC(C(=O)N1CCN(c2ncnc3c2C(C)CC3O)CC1)c1ccc(Cl)cc1 (stereo unspecified) + COc1cc2nc(C)nc(NC(C)c3cc(N)cc(C(F)(F)F)c3)c2cc1OC1CCOC1	%	48.7
CC(C)n1nc(-c2ccc3oc(N)nc3c2)c2c(N)ncnc21 + COc1cc2nc(C)nc(NC(C)c3cc(N)cc(C(F)(F)F)c3)c2cc1OC1CCOC1	%	21.6
Cn1ncnc1[C@H]1c2n[nH]c(=O)c3cc(F)cc(c23)N[C@@H]1c1ccc(F)cc1 + CC1OCC2(CCN(c3cnc(Sc4ccnc(N)c4Cl)c(N)n3)CC2)C1N	%	37.9
CC1COCCN1c1cc(-c2ccnn2C)c2ccnc(-c3ccn[nH]3)c2n1 (stereo unspecified) + COc1cc2nc(C)nc(NC(C)c3cc(N)cc(C(F)(F)F)c3)c2cc1OC1CCOC1	%	9.76
COC(=O)c1ccc2c(C(=Nc3ccc(N(C)C(=O)CN4CCN(C)CC4)cc3)c3ccccc3)c(O)[nH]c2c1 + CC1OCC2(CCN(c3cnc(Sc4ccnc(N)c4Cl)c(N)n3)CC2)C1N	%	61.1

Data origin, for the record: PubChem BioAssay AID1963871
